Molecular target: Protein kinase C eta type (Homo sapiens) (UniProt P24723);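 further: value is the mean inhibition, from GSK PKIS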
Sequence (P24723 whole entry): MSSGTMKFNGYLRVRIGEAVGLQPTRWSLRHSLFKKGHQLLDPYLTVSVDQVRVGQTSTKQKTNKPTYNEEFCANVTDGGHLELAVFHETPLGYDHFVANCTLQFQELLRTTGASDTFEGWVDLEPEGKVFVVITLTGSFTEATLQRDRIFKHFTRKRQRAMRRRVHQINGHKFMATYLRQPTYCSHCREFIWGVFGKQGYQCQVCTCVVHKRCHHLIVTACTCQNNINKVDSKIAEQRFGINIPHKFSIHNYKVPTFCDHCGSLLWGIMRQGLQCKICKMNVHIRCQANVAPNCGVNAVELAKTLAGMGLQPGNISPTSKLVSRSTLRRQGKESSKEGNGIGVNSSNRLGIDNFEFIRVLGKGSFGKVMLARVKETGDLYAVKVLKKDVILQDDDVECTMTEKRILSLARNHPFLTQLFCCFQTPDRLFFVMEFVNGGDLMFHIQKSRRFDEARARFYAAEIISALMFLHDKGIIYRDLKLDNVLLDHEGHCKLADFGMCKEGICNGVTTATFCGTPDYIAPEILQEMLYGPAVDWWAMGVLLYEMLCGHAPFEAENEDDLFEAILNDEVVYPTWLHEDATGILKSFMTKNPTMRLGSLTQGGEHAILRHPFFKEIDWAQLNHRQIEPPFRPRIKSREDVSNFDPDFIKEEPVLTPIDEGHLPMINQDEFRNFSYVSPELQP
Conditions: at 1 µM
Overview of reported inhibition across a group of compounds:
quantity-measured: inhibition (%)

given-smiles	value-measured
COc1ccc(-c2nn3ncccc3c2-c2ccnc(Nc3ccc(F)c(F)c3)n2)cc1	7.16
CS(=O)(=O)Nc1ccc(-c2cc(-c3ccccc3)cc(C(N)=O)c2N)cc1	1.53
Cc1cc(O)cc(C)c1/C=C/c1cncc(C(N)=O)c1	-2.58
CNC(=O)c1cncc(/C=C/c2ccccc2C)c1	5.78
CCS(=O)(=O)c1ccc(OC)c(Nc2ncc(-c3cccc(C(C)=O)c3)o2)c1	3.11
CNC(=O)c1sc(-n2cnc3cc(OC)c(OC)cc32)cc1OCc1ccccc1C(F)(F)F	1.55
CCCNc1cccc(-n2ncc3c(N/N=C/c4ccncc4)ncnc32)c1	2.92
COc1ccc(Nc2ncc(-c3ccccc3)o2)cc1OC	-1.25
O=C(O[C@H]1CN[C@H](C#Cc2cc3ncnc(Nc4ccc(OCc5cccc(F)c5)c(Cl)c4)c3s2)C1)N1CCOCC1	5.07
Cc1cc(O)cc(C)c1/C=C/c1cncc(C(=O)OC(C)(C)C)c1	3.71

Where do these numbers come from? They come from ChEMBL document CHEMBL1961873.
